- test_protocol: pKa1 value determined
- Assay type: physicochemical
- condition_info: read-out: pKa1
readout_label: pKa

{"substance_smiles": "Cc1cc(CNCCO)c(O)c(CNCCO)c1", "pKa": 6.4}
{"substance_smiles": "Cc1ccc(O)c(CN)c1", "pKa": 8.7}
{"substance_smiles": "Cc1cc(CN)c(O)c(CN)c1", "pKa": 7}
{"substance_smiles": "Cc1cc([C@@H](N)CO)c(O)c([C@@H](N)CO)c1", "pKa": 6.3}
{"substance_smiles": "COc1c(CN)cc(C)cc1CN", "pKa": 8.5}

* * *

- test_protocol: Time taken by compound for 10% decrease in benzyl-penicillin concentration
- Format: ADME
readout_label: Time (h)

{"substance_smiles": "Cc1cc(CNCCO)c(O)c(CNCCO)c1", "observed_result": 2.45}

1 = COc1c(CN)cc(C)cc1CN
2 = Cc1cc([C@@H](N)CO)c(O)c([C@@H](N)CO)c1
INPUT: Larger number for Time: 1 , or 2 ? // output: label of the selected item
OUTPUT: 1
(1: 44.9 h, 2: 3.6 h)

I = Cc1ccc(O)c(CN)c1
II = Cc1cc(CN)c(O)c(CN)c1
INPUT: Larger number for Time: I , or II ? // output: label of the selected item
OUTPUT: I
(I: 8.25 h, II: 1.38 h)

* * *

- test_protocol: pKa2 value determined
- Format: physicochemical
- condition_info: read-out: pKa2
readout_label: pKa

{"substance_smiles": "Cc1cc([C@@H](N)CO)c(O)c([C@@H](N)CO)c1", "observed_result": 9}
{"substance_smiles": "COc1c(CN)cc(C)cc1CN", "observed_result": 10.2}
{"substance_smiles": "Cc1cc(CNCCO)c(O)c(CNCCO)c1", "observed_result": 9.7}
{"substance_smiles": "Cc1cc(CN)c(O)c(CN)c1", "observed_result": 9.7}

Just for reference, ChEMBL document CHEMBL1134252 is where these values come from.
